test-target: Serine/threonine-protein kinase pim-1 (Homo sapiens, UniProt P11309)
Sequence (P11309 whole entry): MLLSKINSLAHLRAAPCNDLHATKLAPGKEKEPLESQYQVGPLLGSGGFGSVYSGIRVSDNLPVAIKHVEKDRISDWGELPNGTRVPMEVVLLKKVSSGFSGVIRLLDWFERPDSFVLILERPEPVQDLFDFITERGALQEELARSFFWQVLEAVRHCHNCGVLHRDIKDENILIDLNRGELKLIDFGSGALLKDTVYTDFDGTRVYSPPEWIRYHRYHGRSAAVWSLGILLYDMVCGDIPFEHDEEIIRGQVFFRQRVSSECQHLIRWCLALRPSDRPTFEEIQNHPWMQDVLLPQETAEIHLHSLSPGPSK
Type: functional
Calls of active or inactive are those of the source.
// allowed return values: active, inactive

Would you please look over these solved cases?
Cc1ccc2nccc(NC(=O)Nc3cccc(C(F)(F)F)n3)c2c1	inactive
COc1cc2c(cc1F)C(c1ccccc1Cl)=Nc1c(n[nH]c1C)N2	inactive
Nc1cc2c(Oc3ccc(Cl)cc3)cncc2s1	active

Prompt: What did the test return for Cc1nn(C)c2sc3c(=O)[nH]cnc3c12 ?
Completion: active

* * *

test-target: Metabotropic glutamate receptor 3 (Rattus norvegicus, UniProt P31422)
Sequence (P31422 whole entry): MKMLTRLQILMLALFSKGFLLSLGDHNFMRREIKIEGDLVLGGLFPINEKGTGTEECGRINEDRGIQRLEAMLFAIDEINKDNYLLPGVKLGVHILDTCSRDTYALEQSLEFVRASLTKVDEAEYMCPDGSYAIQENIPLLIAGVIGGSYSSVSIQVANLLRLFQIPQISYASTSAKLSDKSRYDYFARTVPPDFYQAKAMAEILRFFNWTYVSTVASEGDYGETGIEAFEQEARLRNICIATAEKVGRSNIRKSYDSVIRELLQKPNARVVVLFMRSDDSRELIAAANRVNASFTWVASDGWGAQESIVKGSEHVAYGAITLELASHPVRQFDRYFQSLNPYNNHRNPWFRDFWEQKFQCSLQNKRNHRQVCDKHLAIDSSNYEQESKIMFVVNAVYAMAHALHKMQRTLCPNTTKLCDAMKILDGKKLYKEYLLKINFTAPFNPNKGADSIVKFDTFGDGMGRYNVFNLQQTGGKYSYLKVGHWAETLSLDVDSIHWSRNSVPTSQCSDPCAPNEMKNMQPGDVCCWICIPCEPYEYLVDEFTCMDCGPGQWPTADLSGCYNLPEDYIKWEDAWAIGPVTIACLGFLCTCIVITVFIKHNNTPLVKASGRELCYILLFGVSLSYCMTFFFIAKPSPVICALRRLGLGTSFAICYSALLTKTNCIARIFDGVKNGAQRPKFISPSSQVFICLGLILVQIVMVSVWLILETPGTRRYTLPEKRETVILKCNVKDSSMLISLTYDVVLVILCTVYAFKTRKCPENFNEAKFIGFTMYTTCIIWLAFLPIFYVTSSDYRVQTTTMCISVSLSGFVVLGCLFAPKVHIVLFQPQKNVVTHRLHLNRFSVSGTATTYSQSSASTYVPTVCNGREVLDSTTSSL
assay-comment: mGlu3 NAM potency via calcium readout, dose response, mGlu3 NAM project, TREx293 cells, Galpha15, calcium flux (AID 651840)
measured-property: pIC50
// pIC50 here means minus log10 of the molar concentration (mol/L)

# pIC50 measured on Metabotropic glutamate receptor 3 (Rattus norvegicus, UniProt P31422) for item COc1ccc(C#Cc2ccc(C(=O)NC(C)CO)cc2)cc1 (stereo unspecified) = 5.33

* * *

test-target: Melanocortin receptor 4 (Homo sapiens);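 further: Cell-based assay with luminescence read-out, confirmatory dose-response testing for agonist activity of biased ligands at MC4R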;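 further: human U2OS cells with tagged receptor and beta-arrestin; potency of agonists that increase receptor coupling to beta-arrestin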
Sequence (P32245 whole entry): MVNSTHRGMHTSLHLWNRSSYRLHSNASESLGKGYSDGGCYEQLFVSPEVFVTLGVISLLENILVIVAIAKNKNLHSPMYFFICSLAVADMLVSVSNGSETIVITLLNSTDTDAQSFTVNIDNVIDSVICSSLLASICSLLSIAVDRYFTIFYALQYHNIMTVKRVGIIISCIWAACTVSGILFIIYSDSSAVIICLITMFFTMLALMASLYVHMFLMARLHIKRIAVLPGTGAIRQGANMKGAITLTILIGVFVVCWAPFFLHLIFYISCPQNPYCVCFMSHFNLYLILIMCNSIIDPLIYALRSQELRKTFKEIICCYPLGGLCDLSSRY
Type: functional, cell-based
Calls of active or inactive are those of the source.
// allowed return values: label 1 (active), label 0 (inactive)

COc1ccccc1-c1cc(NC(C)=O)c2ncc(-c3cccc(C(F)(F)F)c3)n2c1	label 0
COc1ccc(-c2cc(NC(C)=O)c3ncc(-c4ccc(F)cc4)n3c2)cc1OC	label 0
CC(=O)Nc1cc(-c2ccc(N(C)C)cc2)cn2c(-c3ccc(F)cc3)cnc12	label 1

Please turn your attention to the following entry.
Prompt: What did the test return for NC(Cc1ccc(C(F)(F)F)cc1)c1csc(Nc2ccc(C(=O)NCc3ccco3)cn2)n1 (centres undefined) ?
Completion: label 1

* * *

test-target: Estrogen receptor beta (Homo sapiens, UniProt Q92731)
Sequence (Q92731 whole entry): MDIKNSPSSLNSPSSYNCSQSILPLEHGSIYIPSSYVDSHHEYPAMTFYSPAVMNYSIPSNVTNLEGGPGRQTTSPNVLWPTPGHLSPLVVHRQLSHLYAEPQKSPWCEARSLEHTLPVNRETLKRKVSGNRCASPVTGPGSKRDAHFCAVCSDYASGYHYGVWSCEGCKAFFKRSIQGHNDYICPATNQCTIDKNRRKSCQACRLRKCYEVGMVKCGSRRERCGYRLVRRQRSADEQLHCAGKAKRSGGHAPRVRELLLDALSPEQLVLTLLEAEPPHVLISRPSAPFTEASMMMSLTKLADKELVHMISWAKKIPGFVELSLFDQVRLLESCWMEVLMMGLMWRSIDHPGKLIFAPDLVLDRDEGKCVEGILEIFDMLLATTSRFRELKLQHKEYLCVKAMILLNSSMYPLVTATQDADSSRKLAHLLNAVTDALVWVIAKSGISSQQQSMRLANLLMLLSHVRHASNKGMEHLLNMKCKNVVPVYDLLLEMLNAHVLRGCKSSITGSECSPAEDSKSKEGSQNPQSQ
assay-comment: ERβ–SRC-3 coactivator interaction inhibitors, confirmation, orthogonal assay, biochemical, ELISA, streptavidin-HRP readout (AID 1060)
measured-property: IC50

Example entries begin here.
COc1cc(C2C(C#N)=C(N)Oc3cc(C)oc(=O)c32)cc2c1OCO2 (centres undefined)	9.24 µM (not active)
O=C(Cn1nnc(-c2ccc3c(c2)OCO3)n1)NCc1ccco1	3 µM (not active)
CC1(C)CCCN(C(=O)c2coc(=O)c(Br)c2)C1	93.2 µM (not active)

The reported value for Cn1c(C(=O)Nc2ccc3c(c2)OCO3)cc2c(=O)n(C)c3ccccc3c21 in terms of IC50 is 0.0468 µM (not active)

* * *

assay-comment: inhibitors of intracellular T. cruzi replication, confirmation, NIH3T3 host cells, beta-gal luminescence (AID 2044);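 further: intracellular parasites grown in NIH/3T3 mouse fibroblasts as host cells; luminescent beta-galactosidase reporter signal from transgenic T. cruzi replicating inside host cells; inhibitors lower the luminescence signal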
Assay type: functional, cell-based
Calls of active or inactive are those of the source.
measured-property: EC50

Example entries begin here.
Cc1nc(-n2nc3c(c2O)CCCC3)[nH]c(=O)c1Cc1ccccc1	1170 nM (active)
CN(C)CCCN(C(=O)c1ccc(S(=O)(=O)N2CCc3ccccc32)cc1)c1nc2c(Cl)cccc2s1	206 nM (active)
NS(=O)(=O)c1ccc(Nc2nc(-c3cccc([N+](=O)[O-])c3)cs2)cc1	4080 nM (active)
Cc1ccc2oc(=O)c3cnn(CC(=O)NC4CCN(Cc5ccccc5)CC4)c3c2c1	< 100 nM (active)
Brc1ccccc1OCCCCCN1CCCC1	2220 nM (active)
CN1CCN(c2nc(Nc3cccc(C(F)(F)F)c3)nc(N3CCOCC3)n2)CC1	1780 nM (active)
CC(C)N(CC(=O)Nc1ccc(Cl)cc1C(F)(F)F)C(=O)CCl	3380 nM (active)
CC1(c2cc([N+](=O)[O-])cc([N+](=O)[O-])c2)CC(C)(C)N(C(=O)c2ccccc2)c2ccccc21 (centres undefined)	170 nM (active)

The reported value for COc1ccccc1NS(=O)(=O)c1cc(NC(=O)Nc2cccc(C)c2)ccc1N1CCCCC1 in terms of EC50 is 2160 nM (active)

Sourced from ChEMBL document CHEMBL1201862
